test system: Plasmodium falciparum NF54; assay: growth inhibition relative to untreated control; higher = more inhibition; details: 1 µM; MM + chorismate end-products (CM screening medium); 72 h
Binary classification by growth inhibition, with 90% as an inclusive lower bound for criterion met; all other cases are criterion not met.

Answered cases to consult:
O=[N+]([O-])c1cn2c(n1)OC[C@@H](OCc1ccc(OC(F)(F)F)cc1)C2    criterion not met
Cc1cc(C)nc(-n2nc(C)cc2Nc2ccccc2)n1    criterion not met
CN1CCN(c2nccc3nc(-c4ccc(F)c(F)c4)[nH]c23)CC1    criterion not met
Cc1cc(C)n(-c2ccc(NC(=O)C3CCN(Cc4cnc(C)s4)CC3)cc2)n1    criterion not met
CC1CC1C(=O)NC1CCN(CC2(c3ccccc3)CCCCC2)CC1 (stereo unspecified)    criterion met
O=C(NCCN1CCCC1)c1cc(NCCCCN2CCC(F)(F)CC2)nc2ccc(Cl)cc12    criterion met

## Input Please indicate if the recorded growth inhibition for "NC(=O)c1cc(Br)ccc1OCCOc1ccccc1" meets or exceeds 90%.
## Output criterion not met

## Input Please indicate if the recorded growth inhibition for "Nc1ncc(Br)cc1-c1nc2cc(Cl)cnc2[nH]1" meets or exceeds 90%.
## Output criterion not met

## Input Please indicate if the recorded growth inhibition for "O=C(NCc1ccoc1)N1CCN(Cc2ccc3c(c2)OCO3)CC1" meets or exceeds 90%.
## Output criterion not met

## Input Please indicate if the recorded growth inhibition for "O=C(NC1CCCCC1)N1CCN(Cc2ccc3c(c2)OCO3)CC1" meets or exceeds 90%.
## Output criterion not met

* * *

Task for the reader: assign each of the following compounds its reported growth inhibition.
tested on: Plasmodium falciparum NF54; assay: growth inhibition relative to untreated control; higher = more inhibition; details: 1 µM; minimal medium (MM); 72 h
Answers are plain numbers, in %.

O=C(Nc1nnc(S)s1)c1cc(Br)ccc1Cl    9.59
COc1ccc(C2CC(c3cccs3)=NN2C(=O)c2ccco2)cc1OC (stereo unspecified)    89.5
Cc1cc(OCC(=O)Nc2ccc(C(C)C)cc2)n(C)c(=O)c1C#N    33
N#CCN(CCCCN1CCN(c2ccc(F)cc2)CC1)C(=O)OCc1ccccc1    7.66
Cc1nn(C)cc1C(C)Nc1nncc(-c2ccc(C(F)(F)F)cc2)n1 (stereo unspecified)    97.4

Go through the list and state growth inhibition for each entry.
1. CC(C)(C)[C@H]1CC[C@H](CC2=C(O)C(=O)c3ccccc3C2=O)CC1
2. CC(C)(C)c1cnc(NC(=O)c2ccccc2O)s1

## Output
95.2
7.86

* * *

system: Plasmodium falciparum NF54; test: growth inhibition relative to untreated control; higher = more inhibition; conditions: 1 µM; MM + chorismate end-products (CM screening medium); 72 h
Binary classification by growth inhibition, with 30% as an inclusive lower bound for YES; all other cases are NO.

Answered cases to consult:
COc1cncc(-c2cncc(N3CCN(c4ccncc4)CC3)n2)c1    YES
Cc1cccc(NC(=O)c2cc(S(=O)(=O)N(C)c3ccc(F)cc3)ccc2Cl)n1    YES
NS(=O)(=O)c1cccc(-c2ccc3ncc(N4CCOCC4)nc3c2)c1    YES
COC(=O)c1c(NC(=O)c2cc3ccccc3oc2=O)sc2c1CCN(Cc1ccccc1)C2    NO
COc1nc2ccc(Br)cc2cc1[C@@H](c1ccccc1)[C@@](O)(CCN(C)C)c1cccc2ccccc12    YES

## Input Please indicate if the recorded growth inhibition for "Nc1ncnc2c1ncn2C[C@@H](O)[C@@H](O)C(=O)O" meets or exceeds 30%.
## Output YES

## Input Please indicate if the recorded growth inhibition for "O=C(c1ccco1)N(CCCn1ccnc1)c1nc2c(Cl)cccc2s1" meets or exceeds 30%.
## Output NO

## Input Please indicate if the recorded growth inhibition for "CN1CCN(c2nccc3[nH]c(-c4cccc(F)c4)cc23)CC1" meets or exceeds 30%.
## Output NO

## Input Please indicate if the recorded growth inhibition for CNC1C(OC2C(OC3C(O)C(O)C(N=C(N)N)C(O)C3N=C(N)N)OC(C)C2(O)C=O)OC(CO)C(O)C1O (centres undefined) meets or exceeds 30%.
## Output NO

## Input Please indicate if the recorded growth inhibition for CC(=O)Nc1ccc(-c2noc(CC3CCCN(Cc4cccc(F)c4C)C3)n2)cc1 (centres undefined) meets or exceeds 30%.
## Output NO

## Input Please indicate if the recorded growth inhibition for "COc1ccc(Nc2ccccc2NC(=O)c2ccc(O)nc2)cc1" meets or exceeds 30%.
## Output NO

## Input Please indicate if the recorded growth inhibition for "Cc1cc(C)cc(COc2ccc3c(C)c(CCC(=O)O)c(=O)oc3c2C)c1" meets or exceeds 30%.
## Output NO

* * *

system: Plasmodium falciparum NF54; assay: growth inhibition relative to untreated control; higher = more inhibition; conditions: 5 µM; MM + chorismate end-products (CM screening medium); 72 h
Binary classification by growth inhibition, with 60% as an inclusive lower bound for Satisfied; all other cases are Not satisfied.

Answered cases to consult:
CC(C)/N=c1\cc2n(-c3ccc(Cl)cc3)c3ccccc3nc-2cc1Nc1ccc(Cl)cc1    Satisfied
CCC(=O)Nc1ccccc1C(=O)Nc1ccccn1    Not satisfied

## Input Please indicate if the recorded growth inhibition for "O=C(Nc1ccc(F)c(-c2nc3cc(-c4ccccc4)cnc3[nH]2)c1)N1CCCC1" meets or exceeds 60%.
## Output Not satisfied

## Input Please indicate if the recorded growth inhibition for CNC1C(OC2C(OC3C(O)C(O)C(N=C(N)N)C(O)C3N=C(N)N)OC(C)C2(O)C=O)OC(CO)C(O)C1O (stereo not given) meets or exceeds 60%.
## Output Not satisfied

* * *

test system: Plasmodium falciparum NF54; assay: growth inhibition relative to untreated control; higher = more inhibition; conditions: 5 µM; minimal medium (MM); 72 h
Task for the reader: assign each of the following compounds its reported growth inhibition.
Give bare numbers, in %.

Below, 2 compounds whose answers are already recorded.
COc1cccc(OC)c1C(=O)Nc1ccc(Cl)c(-c2nc3ccccc3s2)c1    29.8
O=C(Nc1cnc2ccccc2c1)c1cccc(-n2cnnn2)c1    87.1

Go through the list and state growth inhibition for each entry.
1. Cc1cc(NC(=O)c2ccc(Oc3ccc(Cl)cc3O)o2)no1
2. N#Cc1nc(-c2ccccc2F)oc1NCCc1ccccc1
3. Cc1cc(NC(=O)c2ccc(S(=O)(=O)N(Cc3ccccc3)C(C)C)cc2)no1
4. COc1cc(OC)cc(C(=O)NCC2Cc3cc(Cl)cc(-c4ccncc4)c3O2)c1 (stereo unspecified)

## Output
[34.9, 15.2, 93.1, 91.9]

Go through the list and state growth inhibition for each entry.
1. CC[C@@H]([C@H](C)O)n1ncn(-c2ccc(N3CCN(c4ccc(OC[C@@H]5CO[C@@](Cn6cncn6)(c6ccc(F)cc6F)C5)cc4)CC3)cc2)c1=O
2. CNC1C(OC2C(OC3C(O)C(O)C(N=C(N)N)C(O)C3N=C(N)N)OC(C)C2(O)C=O)OC(CO)C(O)C1O (stereo unspecified)
3. COc1ccc2nc(C)cc(OCC(=O)NCc3ccccc3)c2c1
4. Nc1ncc(Br)cc1-c1nc2cc(Cl)cnc2[nH]1
5. CN(C)CCNC(=O)N1CCCN(c2ncnc3cc(-c4ccccc4)sc23)CC1
6. CCc1ccc(C(NCc2nc(N)nc(N(C)C)n2)C(C)C)cc1 (stereo unspecified)
7. CC1=Nc2ccc(Cl)cc2C(O)(c2ccc(C)cc2)N1CCN1CCCCC1 (stereo unspecified)
8. Nc1nc2cc(-c3cncc(Oc4ccc(F)cc4)c3)ccc2[nH]1

## Output
1: 83.4; 2: 8.51; 3: 2.43; 4: 89.1; 5: 87; 6: 9.29; 7: 86.9; 8: 95.6

Go through the list and state growth inhibition for each entry.
1. CCCCOC(=O)Nc1cc2nc(C3CCCCC3)[nH]c2cc1N1CCCC1
2. Nc1nc(N)c2c3c(sc2n1)CN(Cc1ccccc1)CC3
3. CC1CCCN(C(=O)C(C)Nc2cc(Cl)ccc2N2CCOCC2)C1 (stereo unspecified)
4. Nc1nccc2ccc(-c3ccc4nccn4c3)cc12

## Output
1: 5.52; 2: 91.9; 3: 94.9; 4: 88.2

* * *

system: Plasmodium falciparum NF54; test: growth inhibition relative to untreated control; higher = more inhibition; conditions: 1 µM; MM + chorismate end-products (CM screening medium); 72 h
readout: growth inhibition (%)
Give bare numbers, in %.

Below, 3 compounds whose answers are already recorded.
C[C@H](C(N)=O)N1CCCC[C@H]1c1ccc(OCc2cccc(F)c2)cc1    18.3
COc1ccc(CN2CCOc3ccc(C(C)(O)CN(C)C)cc3C2)cc1C (stereo not drawn)    78.6
CNC(=O)CNc1nc(-c2ccccn2)nc2scc(-c3ccccc3)c12    8.9

Go through the list and state growth inhibition for each entry.
1. N#Cc1ccc(-c2cnc(N)c(-c3ccc(C(N)=O)cc3)n2)cc1
2. FC(F)(F)c1nnc2ccc(Cl)nn12
3. CC(C)C(C(=O)Nc1ccc(S(=O)(=O)N(C)C)cc1)c1ccc(Cl)cc1 (stereo not drawn)
4. CC(C)(C)CN1C(=O)C(c2ccccc2)(c2ccccc2)N=C1N
5. O=C(Nc1nnc(-c2ccc(Cl)cc2)o1)c1cccc(C(F)(F)F)c1
6. Cc1cccc(-c2nc(Nc3ccncn3)c3sccc3n2)n1

## Output
1. 99.3
2. 8.81
3. 96.6
4. 45.9
5. 11.8
6. 81.1
